Biological target: T1, PKC-βII (purified isoform) (Homo sapiens (Human), UniProt P05771 2-621)
T1 construct: also called PKC-beta II
T1 sequence (P05771 other isoform, or with tags, fused parts or gaps limits assumed): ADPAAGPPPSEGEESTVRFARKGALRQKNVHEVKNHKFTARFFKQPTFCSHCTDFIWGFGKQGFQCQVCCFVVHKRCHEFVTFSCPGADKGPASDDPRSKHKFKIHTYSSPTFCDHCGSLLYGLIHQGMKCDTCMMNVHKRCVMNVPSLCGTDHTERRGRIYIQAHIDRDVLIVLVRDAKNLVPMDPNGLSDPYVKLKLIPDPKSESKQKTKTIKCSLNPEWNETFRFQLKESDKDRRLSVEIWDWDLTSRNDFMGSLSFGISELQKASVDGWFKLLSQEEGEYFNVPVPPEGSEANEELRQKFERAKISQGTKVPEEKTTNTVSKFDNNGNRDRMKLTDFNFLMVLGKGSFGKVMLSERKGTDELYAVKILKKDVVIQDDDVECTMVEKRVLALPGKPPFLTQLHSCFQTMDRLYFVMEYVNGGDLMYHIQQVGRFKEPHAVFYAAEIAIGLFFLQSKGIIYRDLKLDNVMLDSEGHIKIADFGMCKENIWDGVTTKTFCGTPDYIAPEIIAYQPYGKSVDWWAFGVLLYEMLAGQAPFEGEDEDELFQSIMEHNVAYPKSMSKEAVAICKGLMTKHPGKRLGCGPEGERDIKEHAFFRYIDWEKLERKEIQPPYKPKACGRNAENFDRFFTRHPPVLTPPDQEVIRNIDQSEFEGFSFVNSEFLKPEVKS
Assay: competitive ELISA on purified PKC-βII vs anti-PKC-βII Ab; PRE 50 µM
measured_property: binding capacity (%)

- Ac-RDAQNLI-NH2 (Synthetic peptide; also called peptide PRE 13; Ac-RDAQNLI-NH2) [PRE 13]: 0
- Ac-ISIGILNQADK-NH2 (Synthetic peptide; also called peptide PRE 10) [PRE 10]: 0
- Ac-KDANQLIGISI-NH2 (Synthetic peptide; also called peptide PRE 6) [PRE 6]: 0.08
- Ac-KDAQNLIGISI-NH2 (Synthetic peptide; also called peptide PRE 4) [PRE 4]: 2.69
- RRKKGGKDFVVKR (Synthetic peptide, solid phase synthesis; termini given free; also called peptide PRE 1) [PRE 1]: 0
